# Test system: Fibroblast
# assayOverview: Multiplex assay against human fibroblast
# Assay type: toxicity, cell-based
# testParameters: 24 h, 1 µM, compound concentration 1 uM, replicate 1
Assign class by Population Fragmented Nuclei (%): not lower than 30% means satisfied; lower than 30% means not satisfied.

chemicalStructure	systemName	label
C[C@@H](Oc1cc(-n2cnc3ccc(CN4CCN(C)CC4)cc32)sc1C(N)=O)c1ccccc1C(F)(F)F	Fibroblast	satisfied
Cc1ccc(NC(=O)Nc2cc(C(F)(F)F)ccc2F)cc1Nc1ccc2c(c1)NC(=O)/C2=C\c1ccc[nH]1	Fibroblast	not satisfied
CC[C@@H]1C(=O)N(C)c2cnc(Nc3ccc(C(=O)NC4CCN(C)CC4)cc3OC)nc2N1C1CCCC1	Fibroblast	satisfied
Cc1ccc(S(=O)(=O)NC2c3ccccc3Oc3ccccc32)cc1	Fibroblast	not satisfied
CC(/C=C1\SC(=S)N(CCCC(=O)Nc2ccc(C(=O)O)c(O)c2)C1=O)=C\c1ccccc1	Fibroblast	not satisfied
CCOC(=O)CCNc1cc(N2CCc3ccccc3CC2)nc(-c2ccccn2)n1	Fibroblast	not satisfied
Cc1c(Nc2ccc(S(=O)(=O)N3CCN(C)CC3)cc2F)nc2ccc(-c3cnn(C4CC4)c3)cn2c1=O	Fibroblast	not satisfied
